# Assay System: human Nav1.7 (hNav1.7) (Homo sapiens, UniProt Q15858)
# Construct: expressed in transfected cells
# Sequence (Q15858 whole entry): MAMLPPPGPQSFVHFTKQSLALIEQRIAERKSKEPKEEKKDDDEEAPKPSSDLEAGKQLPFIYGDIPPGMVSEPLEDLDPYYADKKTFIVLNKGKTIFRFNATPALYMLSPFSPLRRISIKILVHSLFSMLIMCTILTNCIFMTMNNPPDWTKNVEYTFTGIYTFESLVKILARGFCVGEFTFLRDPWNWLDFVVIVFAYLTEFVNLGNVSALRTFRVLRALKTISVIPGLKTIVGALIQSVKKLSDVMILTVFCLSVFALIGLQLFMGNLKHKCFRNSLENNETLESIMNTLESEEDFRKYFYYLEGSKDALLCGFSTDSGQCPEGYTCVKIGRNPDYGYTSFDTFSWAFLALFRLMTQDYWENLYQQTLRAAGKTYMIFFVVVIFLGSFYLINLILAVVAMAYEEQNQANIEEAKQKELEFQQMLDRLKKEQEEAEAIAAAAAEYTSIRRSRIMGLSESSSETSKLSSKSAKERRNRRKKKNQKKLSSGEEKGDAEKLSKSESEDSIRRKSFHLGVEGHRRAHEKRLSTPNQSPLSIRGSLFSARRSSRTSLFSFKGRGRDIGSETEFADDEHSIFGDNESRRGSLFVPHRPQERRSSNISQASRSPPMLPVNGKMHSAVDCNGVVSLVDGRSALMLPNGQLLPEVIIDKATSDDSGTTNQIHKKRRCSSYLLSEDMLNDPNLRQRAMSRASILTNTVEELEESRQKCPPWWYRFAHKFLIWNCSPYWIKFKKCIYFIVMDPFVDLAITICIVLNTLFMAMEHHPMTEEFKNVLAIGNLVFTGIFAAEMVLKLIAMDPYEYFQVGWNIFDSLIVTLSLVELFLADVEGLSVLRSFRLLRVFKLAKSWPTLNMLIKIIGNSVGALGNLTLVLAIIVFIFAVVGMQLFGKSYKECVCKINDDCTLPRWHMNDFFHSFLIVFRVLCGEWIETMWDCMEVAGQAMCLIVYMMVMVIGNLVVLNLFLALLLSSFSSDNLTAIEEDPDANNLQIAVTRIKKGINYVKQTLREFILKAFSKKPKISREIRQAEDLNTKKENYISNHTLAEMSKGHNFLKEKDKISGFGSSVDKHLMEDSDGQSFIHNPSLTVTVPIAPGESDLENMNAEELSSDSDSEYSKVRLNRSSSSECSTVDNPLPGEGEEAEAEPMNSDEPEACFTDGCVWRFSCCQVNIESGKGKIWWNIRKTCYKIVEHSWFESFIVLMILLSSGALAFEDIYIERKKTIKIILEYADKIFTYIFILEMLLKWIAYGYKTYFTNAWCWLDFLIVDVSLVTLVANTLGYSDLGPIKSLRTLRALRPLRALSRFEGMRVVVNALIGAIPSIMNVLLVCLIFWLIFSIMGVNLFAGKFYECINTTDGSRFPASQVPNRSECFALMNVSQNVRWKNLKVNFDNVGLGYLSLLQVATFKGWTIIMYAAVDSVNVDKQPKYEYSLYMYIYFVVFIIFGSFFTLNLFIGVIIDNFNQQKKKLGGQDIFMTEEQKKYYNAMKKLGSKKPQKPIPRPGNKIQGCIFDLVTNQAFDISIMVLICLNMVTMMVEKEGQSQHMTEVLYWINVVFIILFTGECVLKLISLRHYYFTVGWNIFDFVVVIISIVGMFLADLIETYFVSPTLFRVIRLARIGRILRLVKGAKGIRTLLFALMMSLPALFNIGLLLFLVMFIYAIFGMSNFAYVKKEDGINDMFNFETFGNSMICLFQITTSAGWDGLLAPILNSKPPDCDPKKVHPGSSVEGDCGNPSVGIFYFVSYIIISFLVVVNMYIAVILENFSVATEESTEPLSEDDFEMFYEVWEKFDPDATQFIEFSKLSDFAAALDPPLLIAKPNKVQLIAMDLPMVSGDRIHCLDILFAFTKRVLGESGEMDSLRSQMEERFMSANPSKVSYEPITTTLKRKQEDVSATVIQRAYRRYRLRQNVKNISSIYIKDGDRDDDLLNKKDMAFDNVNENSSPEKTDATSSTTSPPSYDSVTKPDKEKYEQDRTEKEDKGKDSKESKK
# Measurement Notes: hNav1.7 whole-cell patch-clamp electrophysiology (automated PatchXpress 7000A or manual) in stably expressing 293 cells
# Type: cell-based
# Particulars: average IC50, human Nav1.7
# Procedure: Compounds were tested on human Nav1.7 (hNav1.7) expressed stably in 293 cells, which have no endogenous sodium channels. Two forms of whole-cell patch-clamp assays were used. In both, peak current through Nav1.7 was evoked by a depolarizing voltage pulse, and currents were monitored as a function of time in response to exposure to several different concentrations of drug. Automated electrophysiology uses the PatchXpress 7000A system. […] IC50 were determined by fitting to the Hill equation.
Classes (IC50): group A (below 1 µM), group B (1 µM to below 8 µM), group C (8 µM or more)

Solved cases below.
                                   compound      cat
0  CNC(=O)c1cccc(Nc2ncnc(N3CCC(COCC4CC4)CC3)n2)c1  group C
1  CNC(=O)c1cccc(Nc2ncnc(N3CC(Oc4ccc(C(C)(C)C)cc4)C3)n2)c1  group B
2  CNC(=O)c1cccc(Nc2ncnc(N3CCC(n4cc(-c5ccc(Cl)cc5)cn4)CC3)n2)c1  group B
3  CNC(=O)c1cccc(Nc2ncnc(N3CCC(OCc4ccc(OC(F)(F)F)cc4)CC3)n2)c1  group B
4  CNC(=O)c1cc(F)cc(Nc2ncnc(N3CCC(c4nc(-c5ccccc5)cs4)CC3)n2)c1  group B

Prompt line: Which class does CNC(=O)c1cccc(Nc2ncnc(N3CCN(c4ccc(C(F)(F)F)cc4)CC3)n2)c1 fall in?
Response line: group A

Prompt line: Field: class (IC50) — entry: CNC(=O)c1cccc(Nc2ncnc(N3CC(COc4ccc(Cl)c5cccnc45)C3)n2)c1
Response line: group C

Prompt line: Which band does CNC(=O)c1cccc(Nc2ncnc(N3CCc4c(F)cccc4C3)n2)c1 fall in?
Response line: group C

Prompt line: # bin label for CNC(=O)c1cccc(Nc2ncnc(N3CC(Oc4ccc(F)c(Cl)c4)C3)n2)c1
Response line: group A

Prompt line: Category of CNC(=O)c1cccc(Nc2ncnc(N3CC(OCc4ccc(OC(F)(F)F)cc4)C3)n2)c1 , please.
Response line: group B

Prompt line: # bin lookup: classify CNC(=O)c1cccc(Nc2ncnc(N3CCC3COc3ccc(Cl)cc3)n2)c1 (stereo not drawn) by its IC50
Response line: group C
